pKd listing for selected compounds.
- System: Human Glypican3-Fc (Homo sapiens)
- Sequence (P51654 with tags, fused parts or gaps limits assumed): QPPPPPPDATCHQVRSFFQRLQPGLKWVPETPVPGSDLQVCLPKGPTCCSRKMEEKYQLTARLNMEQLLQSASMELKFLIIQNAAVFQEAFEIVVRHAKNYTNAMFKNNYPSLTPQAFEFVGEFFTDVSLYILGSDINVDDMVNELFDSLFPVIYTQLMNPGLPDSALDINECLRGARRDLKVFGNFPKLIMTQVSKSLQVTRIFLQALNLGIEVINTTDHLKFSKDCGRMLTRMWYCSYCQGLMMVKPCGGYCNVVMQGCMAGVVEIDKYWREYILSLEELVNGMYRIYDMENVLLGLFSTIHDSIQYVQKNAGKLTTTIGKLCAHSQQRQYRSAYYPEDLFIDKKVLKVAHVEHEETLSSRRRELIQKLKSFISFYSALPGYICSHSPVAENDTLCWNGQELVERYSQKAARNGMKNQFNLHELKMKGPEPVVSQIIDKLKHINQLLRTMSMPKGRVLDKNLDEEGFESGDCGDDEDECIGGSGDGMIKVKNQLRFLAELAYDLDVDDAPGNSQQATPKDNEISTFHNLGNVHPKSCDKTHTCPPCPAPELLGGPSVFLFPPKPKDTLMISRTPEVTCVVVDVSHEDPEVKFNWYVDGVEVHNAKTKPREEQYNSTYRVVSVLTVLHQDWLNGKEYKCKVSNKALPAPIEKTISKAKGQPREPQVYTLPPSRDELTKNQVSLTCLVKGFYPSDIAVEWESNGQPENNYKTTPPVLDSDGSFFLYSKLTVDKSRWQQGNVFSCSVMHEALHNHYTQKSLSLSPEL
- Method notes: SPR binding to Glypican-3, Method B-3 (Glypican3-Fc captured on Protein A chip, 5-point dilution series)
- Conditions used: SPR method B-3
pKd: −log10 of the molar value.

{"Compound": "CC[C@H](C)[C@@H]1NC(=O)[C@H]([C@@H](C)OC)NC(=O)[C@H](Cc2ccc(C(=O)O)cc2)NC(=O)[C@H](CCCCNC(=O)N2CCN(CC(=O)O)CC2)N(C)C(=O)[C@H](CC(=O)O)NC(=O)[C@H](CCCCNC(=O)N2CCN(CC(=O)O)CC2)N(C)C(=O)[C@H](CCCCN)N(C)C(=O)CSC[C@@H](C(N)=O)N(C)C(=O)[C@H](Cc2ccc(-c3ccccc3)nc2)NC(=O)CNC(=O)[C@H](Cc2ccc3ccncc3c2)N(C)C(=O)[C@H](Cc2ccc(OCC(=O)N3CCN(CC(=O)O)CC3)cc2)NC1=O [Conjugate 2-32]", "pKd": 8.74}
{"Compound": "CC[C@H](C)[C@@H]1NC(=O)[C@H]([C@@H](C)OC)NC(=O)[C@H](Cc2ccc(C(=O)O)cc2)NC(=O)[C@H](CNC(=O)N2CCN(CC(=O)O)CC2)N(C)C(=O)[C@H](CC(=O)O)NC(=O)[C@H](CCOC)N(C)C(=O)[C@H](CCCCNC(=O)N2CCN(CC(=O)O)CC2)N(C)C(=O)SCC[C@@H](C(N)=O)N(C)C(=O)[C@H](Cc2ccc(-c3ccccc3)nc2)NC(=O)CNC(=O)[C@H](Cc2ccc3ccncc3c2)N(C)C(=O)[C@H](Cc2ccc(OCCN)cc2)NC1=O [Conjugate 2-38]", "pKd": 8.74}
{"Compound": "CC[C@H](C)[C@@H]1NC(=O)[C@H]([C@@H](C)OC)NC(=O)[C@H](Cc2ccc(NCC(=O)O)nc2)NC(=O)[C@H](CNC(=O)N2CCN(CC(=O)O)CC2)N(C)C(=O)[C@H](CC(=O)O)NC(=O)[C@H](CCCCNC(=O)N2CCN(CC(=O)O)CC2)N(C)C(=O)[C@H](CCCCN)N(C)C(=O)CSC[C@@H](C(N)=O)N(C)C(=O)[C@H](Cc2ccc(-c3ccccc3)nc2)NC(=O)CNC(=O)[C@H](Cc2ccc3ccncc3c2)N(C)C(=O)[C@H](Cc2ccc(OCC(=O)O)cc2)NC1=O [Conjugate 2-30]", "pKd": 8.18}

FYI, the data here is from patent US20260241049A1.
